# Experimental System: p110δ/p85α (Homo sapiens)
# Sequence (O00329 whole entry): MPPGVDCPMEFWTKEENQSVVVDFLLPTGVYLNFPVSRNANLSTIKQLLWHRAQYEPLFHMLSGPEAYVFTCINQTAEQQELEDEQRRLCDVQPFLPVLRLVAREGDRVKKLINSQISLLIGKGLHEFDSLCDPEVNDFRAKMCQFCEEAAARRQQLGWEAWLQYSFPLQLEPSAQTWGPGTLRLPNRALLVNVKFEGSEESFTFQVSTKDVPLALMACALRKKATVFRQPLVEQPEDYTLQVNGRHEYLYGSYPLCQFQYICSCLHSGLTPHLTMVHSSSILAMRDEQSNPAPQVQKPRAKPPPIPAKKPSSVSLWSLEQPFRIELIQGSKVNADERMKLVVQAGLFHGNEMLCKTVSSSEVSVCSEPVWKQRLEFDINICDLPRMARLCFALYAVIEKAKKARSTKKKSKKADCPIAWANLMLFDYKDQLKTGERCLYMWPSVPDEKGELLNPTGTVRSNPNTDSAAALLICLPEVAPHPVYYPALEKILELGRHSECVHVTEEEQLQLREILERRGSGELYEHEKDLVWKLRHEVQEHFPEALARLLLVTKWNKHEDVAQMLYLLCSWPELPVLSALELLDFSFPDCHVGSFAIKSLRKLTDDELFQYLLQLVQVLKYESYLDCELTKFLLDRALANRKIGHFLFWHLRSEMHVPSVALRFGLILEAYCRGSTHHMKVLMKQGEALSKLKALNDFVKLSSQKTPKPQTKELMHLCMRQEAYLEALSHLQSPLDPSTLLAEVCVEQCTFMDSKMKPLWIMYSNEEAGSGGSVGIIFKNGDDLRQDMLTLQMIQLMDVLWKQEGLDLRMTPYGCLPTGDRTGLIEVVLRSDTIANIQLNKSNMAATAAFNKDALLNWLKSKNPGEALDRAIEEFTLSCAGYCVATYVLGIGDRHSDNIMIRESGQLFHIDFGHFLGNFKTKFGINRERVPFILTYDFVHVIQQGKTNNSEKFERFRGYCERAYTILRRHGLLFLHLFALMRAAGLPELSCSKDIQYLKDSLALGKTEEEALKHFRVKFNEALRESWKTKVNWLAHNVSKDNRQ
# Sequence (P27986 whole entry partner): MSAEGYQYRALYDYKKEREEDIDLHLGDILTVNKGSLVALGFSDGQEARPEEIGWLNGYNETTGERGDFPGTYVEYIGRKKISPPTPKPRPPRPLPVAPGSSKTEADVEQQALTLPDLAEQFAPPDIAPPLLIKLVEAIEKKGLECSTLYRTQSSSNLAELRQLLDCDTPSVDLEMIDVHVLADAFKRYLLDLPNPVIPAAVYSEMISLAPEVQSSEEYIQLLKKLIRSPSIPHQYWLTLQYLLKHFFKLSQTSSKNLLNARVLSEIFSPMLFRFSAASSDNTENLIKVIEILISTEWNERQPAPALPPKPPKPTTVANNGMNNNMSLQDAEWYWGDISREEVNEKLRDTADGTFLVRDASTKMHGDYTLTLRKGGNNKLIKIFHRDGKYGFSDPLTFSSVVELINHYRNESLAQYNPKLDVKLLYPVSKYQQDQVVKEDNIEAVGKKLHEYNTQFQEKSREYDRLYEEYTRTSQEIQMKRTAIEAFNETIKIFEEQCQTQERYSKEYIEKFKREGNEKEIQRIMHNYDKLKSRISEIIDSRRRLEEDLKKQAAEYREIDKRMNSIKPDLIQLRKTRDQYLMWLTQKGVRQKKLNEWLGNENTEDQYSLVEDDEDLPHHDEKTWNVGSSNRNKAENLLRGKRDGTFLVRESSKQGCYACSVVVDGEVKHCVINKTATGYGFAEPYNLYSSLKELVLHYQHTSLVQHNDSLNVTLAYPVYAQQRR
# Protocol: Transcreener KINASE Assay, kinase inhibition of p110δ/p85α
# Type: biochemical
# Stated Conditions: 1 uM test compound
Where PI3Kδ IH % @ 1 uM equals or exceeds 90%, the correct label is 1.0; where it does not, the label is 0.0.

Worked cases, answers included:
• Cc1nc(N)nc(N2CC[C@H]2c2nn3ccc(Cl)c3c(=O)n2-c2ccc(F)cc2)c1C#N = 1.0
• CC(Nc1nc(N)ncc1C(F)(F)F)c1cc2ncc(Cl)n2c(=O)n1-c1ccccc1 (stereo not drawn) = 1.0
• N#Cc1c[nH]c2ncnc(N3CCC[C@H]3c3nn4ccc(C5CC5)c4c(=O)n3-c3ccccc3)c12 = 0.0
• O=c1c2c(Cl)ccn2nc([C@@H]2C[C@@H](F)CN2c2ncnc3[nH]cnc23)n1-c1ccccc1 = 1.0
• Cc1nc(N)nc(N2C[C@H](C)[C@H]2c2nn3ccc(F)c3c(=O)n2-c2cccc(F)c2)c1C#N = 1.0

# bool: PI3Kδ IH % @ 1 uM of O=C(NCCO)c1c[nH]c2ncnc(N3CC[C@H]3c3nn4ccc(Cl)c4c(=O)n3-c3ccccc3)c12 >= 90%
1.0

Determine whether this compound has PI3Kδ IH % @ 1 uM no lower than 90%: COc1ccc(-c2c(N)ncnc2N2CC[C@H]2c2nn3ccc(Cl)c3c(=O)n2-c2ccccc2)cn1
0.0

Does the reported PI3Kδ IH % @ 1 uM for Nc1nc(N2CCC[C@H]2c2nn3ccc(Cl)c3c(=O)n2-c2ccccc2)n2nccc2n1 fall at or above the 90% mark?
1.0

The reported measurements were obtained from patent US20150307520A1.
